Reported kon values follow for various binders
molecular target: Human SIRPα v1 (human) (UniProt P78324); experiment: SPR (Biacore), 1:1 binding model
Sequence (P78324 31-370): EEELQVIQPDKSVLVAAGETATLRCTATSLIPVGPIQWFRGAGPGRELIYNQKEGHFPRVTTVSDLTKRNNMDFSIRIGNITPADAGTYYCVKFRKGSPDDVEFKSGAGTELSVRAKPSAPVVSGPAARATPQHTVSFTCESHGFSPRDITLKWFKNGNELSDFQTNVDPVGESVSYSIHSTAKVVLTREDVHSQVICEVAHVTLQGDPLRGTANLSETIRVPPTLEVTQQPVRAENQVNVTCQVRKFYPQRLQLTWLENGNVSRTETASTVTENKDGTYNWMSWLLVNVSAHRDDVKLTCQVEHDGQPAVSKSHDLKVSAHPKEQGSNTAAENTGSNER

Consider the worked cases shown below.
Binder	kon
Humanized anti-SIRPα antibody hu025.023 (antibody, V domains shown) VH: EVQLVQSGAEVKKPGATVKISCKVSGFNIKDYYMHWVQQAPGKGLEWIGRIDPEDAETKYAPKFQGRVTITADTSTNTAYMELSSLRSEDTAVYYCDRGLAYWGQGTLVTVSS VL: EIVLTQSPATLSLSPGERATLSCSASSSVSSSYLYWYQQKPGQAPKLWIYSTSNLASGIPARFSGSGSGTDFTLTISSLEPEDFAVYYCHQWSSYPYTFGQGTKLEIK	643000 M⁻¹ s⁻¹
Humanized anti-SIRPα antibody hu025.059 (antibody, V domains shown) VH: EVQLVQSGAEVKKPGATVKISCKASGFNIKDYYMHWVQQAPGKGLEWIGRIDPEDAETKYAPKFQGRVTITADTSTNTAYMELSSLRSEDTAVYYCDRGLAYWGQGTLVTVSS VL: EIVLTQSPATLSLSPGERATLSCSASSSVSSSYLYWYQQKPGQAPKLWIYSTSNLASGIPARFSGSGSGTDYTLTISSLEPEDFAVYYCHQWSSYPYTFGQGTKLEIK	536000 M⁻¹ s⁻¹
Anti-SIRPα antibody C25 (antibody, V domains shown) VH: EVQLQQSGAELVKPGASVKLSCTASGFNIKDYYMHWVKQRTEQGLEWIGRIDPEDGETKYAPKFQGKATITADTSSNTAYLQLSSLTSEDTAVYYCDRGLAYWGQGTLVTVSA VL: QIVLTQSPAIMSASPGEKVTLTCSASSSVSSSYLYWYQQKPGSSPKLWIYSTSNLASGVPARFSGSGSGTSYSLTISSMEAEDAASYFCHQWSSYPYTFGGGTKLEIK	602000 M⁻¹ s⁻¹
Humanized anti-SIRPα antibody hu025.021 (antibody, V domains shown) VH: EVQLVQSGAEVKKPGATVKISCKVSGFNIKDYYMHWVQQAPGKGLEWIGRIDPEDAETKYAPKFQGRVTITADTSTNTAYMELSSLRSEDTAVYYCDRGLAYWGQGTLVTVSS VL: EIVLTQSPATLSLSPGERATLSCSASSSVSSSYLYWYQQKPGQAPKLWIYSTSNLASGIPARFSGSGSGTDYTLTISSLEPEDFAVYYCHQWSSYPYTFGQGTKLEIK	599000 M⁻¹ s⁻¹

Now, please, on to the next binder.
Query :: Fill in the blank: the reported kon of Humanized anti-SIRPα antibody hu025.060 (antibody, V domains shown) VH: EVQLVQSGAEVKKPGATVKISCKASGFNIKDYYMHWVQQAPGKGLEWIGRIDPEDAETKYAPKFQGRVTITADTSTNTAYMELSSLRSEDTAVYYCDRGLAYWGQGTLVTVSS VL: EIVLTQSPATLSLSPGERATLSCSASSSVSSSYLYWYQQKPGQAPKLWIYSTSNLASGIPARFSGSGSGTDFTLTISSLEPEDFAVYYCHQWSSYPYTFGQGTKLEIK is ____.
Result :: 560000 M⁻¹ s⁻¹
